TARGET: CDK2 (Homo sapiens, UniProt P24941)
Construct: endogenous in cells; host or cells: MDA-MB-231
PROCEDURE SUMMARY: CDK protein degradation activity (Western blotting), CDK2
Format: cell-based
RUN CONDITIONS: MDA-MB-231 cells, 10 μM, 16 hours, Western blot
READOUT KIND: Enzyme degradation CDK2 (% remaining) @ 10 μM (%)
Give just the numeric value; % need not be written.

# MOLECULE, UNITS, ASSAY RESULT
measured = [
    ("O=C1CC[C@H](N2C(=O)c3ccc(N4CCC(CN5CCC(CNc6ncnc7c6ncn7C6CC(NC(=O)Cc7ccccc7)C6)CC5)CC4)cc3C2=O)C(=O)N1 (stereo partly shown) [Compound 181]", "%", 50),
    ("CC(=O)N[C@H]1C[C@@H](n2cnc3c(NCC4CCN(CC5CCN(C(=O)COc6ccc7c(c6)C(=O)N([C@H]6CCC(=O)NC6=O)C7=O)CC5)CC4)ncnc32)C1 [Compound 154]", "%", 70),
    ("O=C(COc1ccc(C2CCC(=O)NC2=O)cc1)NC[C@H]1CC[C@H](CN2CCN(c3ccc(Nc4ncnc5c4ncn5[C@H]4C[C@@H](NC(=O)Cc5ccccc5)C4)cc3)CC2)CC1 (stereo partly shown) [Compound 217]", "%", 50),
    ("Cc1cccc(C(=O)NC2CC(n3cnc4c(NCCC5CCN(CC6CCN(CC7CN(c8ccc9c(c8)C(=O)N([C@H]8CCC(=O)NC8=O)C9=O)C7)CC6)CC5)ncnc43)C2)n1 (stereo partly shown) [Compound 402]", "%", 50),
    ("O=C1CC[C@H](N2C(=O)C=C(Nc3cccc(CC(=O)N4CCC5(CC4)CC(N4CCN(c6ccc(Nc7ncnc8c7ncn8[C@H]7C[C@@H](NC(=O)Cc8ccccc8)C7)cc6)CC4)C5)c3)C2=O)C(=O)N1 [Compound 192]", "%", 50),
]

For the molecule O=C1CC[C@H](N2C(=O)c3cc(F)c(N4CCN(C5CC6(CCN(c7ccc(Nc8ncnc9c8ncn9[C@H]8C[C@@H](NC(=O)Cc9ccccc9)C8)cc7)CC6)C5)CC4)cc3C2=O)C(=O)N1 [Compound 336] , what Enzyme degradation CDK2 (% remaining) @ 10 μM is on record?
0

Give its Enzyme degradation CDK2 (% remaining) @ 10 μM value. Item: O=C1CC[C@H](N2C(=O)c3ccc(NCC(=O)N4CCC5(CC4)CC(N4CCN(c6ccc(Nc7ncnc8c7ncn8C7CC(NC(=O)c8c(Cl)cccc8Cl)C7)cc6)CC4)C5)cc3C2=O)C(=O)N1 (stereo partly shown) [Compound 318]
40

Request the reported Enzyme degradation CDK2 (% remaining) @ 10 μM associated with O=C1CC[C@H](N2C(=O)c3cccc(N4CC(CN5CCC6(CC5)CC(N5CCN(c7ccc(Nc8ncnc9c8ncn9[C@H]8C[C@@H](NC(=O)Cc9ccccc9)C8)cc7)CC5)C6)C4)c3C2=O)C(=O)N1 [Compound 279]
40

Query: Enzyme degradation CDK2 (% remaining) @ 10 μM; subject: Cc1cccc(C(=O)NC2CC(n3cnc4c(Nc5ccc(N6CCN(CC7CCN(c8ccc9nnn([C@H]%10CCC(=O)NC%10=O)c(=O)c9c8)CC7)CC6)cc5C)ncnc43)C2)n1 (stereo partly shown) [Compound 478]
20

Can you share its Enzyme degradation CDK2 (% remaining) @ 10 μM? I mean this molecule: Cc1cccc(C(=O)N[C@H]2C[C@@H](n3cnc4c(Nc5ccc(N6CCN(CCC7CCN(c8ccc9nnn([C@H]%10CCC(=O)NC%10=O)c(=O)c9c8)CC7)CC6)cc5)ncnc43)C2)n1 [Compound 382]
50

Form field: reported Enzyme degradation CDK2 (% remaining) @ 10 μM of O=C1CC[C@H](N2C(=O)c3ccc(CCCCN4CCC(N5CCN(c6ccc(Nc7ncnc8c7ncn8C7CC(NC(=O)Cc8ccccc8)C7)cc6)CC5)CC4)cc3C2=O)C(=O)N1 (stereo partly shown) [Compound 408]
30

Record request: Enzyme degradation CDK2 (% remaining) @ 10 μM value, item CC(=O)N[C@H]1C[C@@H](n2cnc3c(NCc4ccc(N5CCN(CC6CCN(C(=O)CNc7ccc8c(c7)C(=O)N([C@H]7CCC(=O)NC7=O)C8=O)CC6)CC5)cc4)ncnc32)C1 [Compound 161]
60

Consider the molecule shown here: O=C1CC[C@@H](c2cccc(OCC(=O)N3CCC4(CC3)CC(N3CCC(c5ccc(Nc6ncnc7c6ncn7C6CC(NC(=O)Cc7ccccc7)C6)cc5)CC3)C4)c2)C(=O)N1 (stereo partly shown) [Compound 285] What is its recorded Enzyme degradation CDK2 (% remaining) @ 10 μM?
20

For Cc1cccc(C(=O)N[C@H]2C[C@@H](n3cnc4c(NCc5cccc(OCCCN6CCN(C(=O)COc7cccc8c7C(=O)N([C@H]7CCC(=O)NC7=O)C8=O)CC6)c5)ncnc43)C2)n1 [Compound 101] , what is its reported Enzyme degradation CDK2 (% remaining) @ 10 μM?
40

###

TARGET: CDK2 (Homo sapiens, UniProt P24941)
Construct: endogenous in cells; host or cells: MDA-MB-231
PROCEDURE SUMMARY: CDK protein degradation activity (Western blotting), CDK2
Assay type: cell-based
RUN CONDITIONS: MDA-MB-231 cells, 1 μM, 16 hours, Western blot
Protocol: In order to evaluate the CDK protein degradation activity of the compounds according to the present invention, the following experiment was conducted. MDA-MB-231 cells were seeded at 5×10^5 cells per well in a 6-well plate. The next day, the compounds were treated in each well to achieve final concentrations of 100 nM, 1 μM, and 10 μM. […] Cell lysates were quantified and separated by size using sodium dodecyl sulfate-polyacrylamide gel electrophoresis (SDS-PAGE). […]
Recorded Enzyme degradation CDK2 (% remaining) @ 1 μM values for a group of compounds are listed next.

Worked examples follow.
# COMPOUND, ASSAY RESULT
records = [
    ("Cc1cccc(C(=O)N[C@H]2C[C@@H](n3cnc4c(Nc5ccc(N6CCN(CC7CCN(c8cc9c(cc8F)C(=O)N([C@H]8CCC(=O)NC8=O)C9=O)CC7)CC6)cc5)ncnc43)C2)n1", "10%"),
    ("Cc1cccc(C(=O)NC2CC(n3cnc4c(Nc5ccc(N6CCN(C7CC8(CCN(c9ccc%10c(c9)C(=O)N([C@H]9CCC(=O)NC9=O)C%10=O)CC8)C7)CC6)cc5)ncnc43)C2)n1 (stereo partly drawn)", "20/20/20%"),
]

Write down the reported Enzyme degradation CDK2 (% remaining) @ 1 μM of `O=C1CC[C@H](N2C(=O)c3ccc(N4CC(C(=O)N5CCC(CN6CCN(c7ccc(Nc8ncnc9c8ncn9[C@H]8C[C@@H](NC(=O)c9cccc(C(F)(F)F)n9)C8)cc7)CC6)CC5)C4)cc3C2=O)C(=O)N1` , test system: CDK2 (Homo sapiens, UniProt P24941).
40/40/40%

###

TARGET: CDK2 (Homo sapiens)
Construct: endogenous in cells; host or cells: MDA-MB-231
PROCEDURE SUMMARY: CDK protein degradation activity (Western blotting), CDK2
Type: cell-based
RUN CONDITIONS: MDA-MB-231 cells, 0.1 μM, 16 hours, Western blot
READOUT KIND: Enzyme degradation CDK2 (% remaining) @ 0.1 μM

# COMPOUND, ASSAY RESULT
data = [
    ("O=C1CC[C@H](N2C(=O)c3ccc(NCC(=O)N4CCC5(CC4)CC(N4CCN(c6ccc(Nc7ncnc8c7ncn8C7CC(NC(=O)c8c(Cl)cccc8Cl)C7)cc6)CC4)C5)cc3C2=O)C(=O)N1 (some centres unmarked) [Compound 318]", "20%"),
    ("CC(=O)N[C@H]1C[C@@H](n2cnc3c(NCC4CCN(CC5CCN(C(=O)COc6ccc7c(c6)C(=O)N([C@H]6CCC(=O)NC6=O)C7=O)CC5)CC4)ncnc32)C1 [Compound 154]", "100%"),
    ("O=C1CCC(N2C(=O)c3ccc(N4CCC(CN5CCN(c6ccc(Nc7ncnc8c7ncn8[C@H]7C[C@@H](NC(=O)c8cccc(Cl)n8)C7)cc6)CC5)CC4)cc3C2=O)C(=O)N1 (some centres unmarked) [Compound 391]", "10/10/10%"),
    ("O=C1CC[C@H](N2C(=O)c3cccc(N4CCC(CCCN5CCN(c6ccc(Nc7ncnc8c7ncn8[C@H]7C[C@@H](NC(=O)Cc8ccccc8)C7)cc6)CC5)CC4)c3C2=O)C(=O)N1 [Compound 261]", "70%"),
]

Look up Enzyme degradation CDK2 (% remaining) @ 0.1 μM for this compound: O=C1CC[C@H](N2C(=O)c3cc(F)c(N4CCC(CN5CCN(c6ccc(Nc7ncnc8c7ncn8C7CC(NC(=O)c8cccc(F)n8)C7)cc6)CC5)CC4)cc3C2=O)C(=O)N1 (some centres unmarked) [Compound 428]
10/10/10%

###

Enzyme degradation CDK2 (% remaining) @ 0.1 μM listing for selected molecules.
TARGET: CDK2 (Homo sapiens, UniProt P24941)
Construct: endogenous in cells; host or cells: MDA-MB-231
PROCEDURE SUMMARY: CDK protein degradation activity (Western blotting), CDK2
Format: cell-based
RUN CONDITIONS: MDA-MB-231 cells, 0.1 μM, 16 hours, Western blot

Worked examples follow.
# MOLECULE, ASSAY RESULT
data = [
    ("O=C1CC[C@H](N2C(=O)c3ccc(N4CCN(CC5CCN(c6ccc(Nc7ncnc8c7ncn8C7CC(NC(=O)Cc8ccccc8)C7)cc6)CC5)CC4)cc3C2=O)C(=O)N1 (some centres unmarked)", "10%"),
    ("Cc1cccc(C(=O)N[C@H]2C[C@@H](n3cnc4c(NCCCN5CCN(CC6CCN(C(=O)COc7cccc([C@@H]8CCC(=O)NC8=O)c7)CC6)CC5)ncnc43)C2)n1", "50%"),
    ("O=C1CC[C@H](N2C(=O)c3ccc(OCC(=O)N4CCN(CCCN5CCN(c6ccc(Nc7ncnc8c7ncn8[C@H]7C[C@@H](NC(=O)Cc8ccccc8)C7)cc6)CC5)CC4)cc3C2=O)C(=O)N1", "100%"),
]

Which Enzyme degradation CDK2 (% remaining) @ 0.1 μM is reported for this molecule? Cc1cccc(C(=O)NC2CC(n3cnc4c(Nc5ccc(N6CCN(CCC7CCN(C(=O)C8CN(c9ccc%10c(c9)C(=O)N([C@H]9CCC(=O)NC9=O)C%10=O)C8)CC7)CC6)cc5)ncnc43)C2)n1 (some centres unmarked)
40/40/40%

I am curious: what Enzyme degradation CDK2 (% remaining) @ 0.1 μM value has been reported for O=C1CCC(N2C(=O)c3cccc(OCC(=O)N4CCC(CCCN5CCN(c6ccc(Nc7ncnc8c7ncn8[C@H]7C[C@@H](NC(=O)Cc8ccccc8)C7)cc6)CC5)CC4)c3C2=O)C(=O)N1 (some centres unmarked) ?
50%
